# System: K562 CRISPRi cells
# assay explanation: Perturb-seq pooled growth measurement (sgRNA counts, growth phenotype γ, relative activity)
# Format: cell-based, human
# experimental context: γ relative to perfectly matched sgRNA (_00) of the same gene, day 5
One threshold, 0.9, splits the recorded relative_activity_day5 values: lower ones are yes (1), equal or higher ones are no (0).

>>> print(df.to_string())
                                  substance         system_name  group_label
0  RPS14_ + _149829238.23-P1P2_00 (guide GAGGCCCGGGCGCGACAATC; listed as DNA, chemistry not fully specified)  K562 CRISPRi cells       no (0)
1  HSPA9_ −_137911079.23-P1P2_00 (guide GGAGCTGCGCGATGCGGTGG; listed as DNA, chemistry not fully specified)  K562 CRISPRi cells       no (0)
2  ALDOA_ + _30077139.23-P1P2_14 (guide GGTCACCAGGACCGCTTCTG; listed as DNA, chemistry not fully specified)  K562 CRISPRi cells      yes (1)
3  ATP5E_ −_57607036.23-P1P2_04 (guide GGTGTCCAGGAGCACTCTGT; listed as DNA, chemistry not fully specified)  K562 CRISPRi cells      yes (1)
